Measured growth values are reported for all entries that follow.
- Tested on: HL-60(TB) leukemia
- Assay Overview: NCI-60 one-dose screen, 48 h (100 = growth as untreated, 0 = no growth, -100 = all killed)
- Protocol Conditions: 10 µM unless noted
This is part of a sample that, as a whole, favours compounds with a hit. Of some 83,000 tested, about 20% had one in any assay.
The figure you give is taken to be in %; do not add the unit.

CCN(CC)c1ccc(/C=N/NC(=O)C[N+](C)(C)C)cc1 : 35.5
Nc1ccc2cc3ccc(N)cc3nc2c1 : 110

Okay, next one:
Requested read-out: growth. Entry: `Cn1/c(=N/NC(N)=S)ccc2ccccc21`
106

---

Measured growth values are reported for all entries that follow.
- System: HL-60(TB) leukemia
- Assay Overview: NCI-60 one-dose screen, 48 h (100 = growth as untreated, 0 = no growth, -100 = all killed)
- Protocol Conditions: 10 µM unless noted
About 83,000 compounds went through this panel and 20% of them were active in at least one assay; those are over-represented in the sample as a whole.
The figure you give is taken to be in %; do not add the unit.

Requested read-out: growth. Entry: `OCCNc1ccccc1`
100

Requested read-out: growth. Entry: `Cc1cc(Cl)ccc1Nc1nc(C(F)(F)F)ccc1C(=O)N/N=C/c1ccc([N+](=O)[O-])cc1`
-24.1

Requested read-out: growth. Entry: `COc1cccc(C(=O)OCCn2nc3c4c(cccc42)C(=O)c2ccccc2-3)c1O`
0.071

---

Measured growth values are reported for all entries that follow.
- System: SNB-75 CNS
- Assay Overview: NCI-60 one-dose screen, 48 h (100 = growth as untreated, 0 = no growth, -100 = all killed)
- Protocol Conditions: 10 µM unless noted
Compounds without any hit were thinned out: in the full panel of roughly 83,000, 20% have a hit. Active and inactive are the calls of the source. The calls were made as follows: active = growth percent below 10; inactive = the rest.

// solved cases for growth follow
CCC(C)[C@H]1O[C@]2(C=C[C@@H]1C)C[C@@H]1C[C@@H](C/C=C(\C)[C@@H](OC3C[C@H](OC)C(O[C@H]4C[C@H](OC)[C@@H](O)[C@H](C)O4)[C@H](C)O3)[C@@H](C)/C=C/C=C3\CO[C@@H]4[C@H](O)C(C)=C[C@@H](C(=O)O1)[C@]34O)O2 (stereo partly specified) : 3.26% (active)
O=C1c2ccccc2C(=O)N1[N+](=O)[O-] : 103% (inactive)
C[CH2][Pb]([CH2]C)([CH2]C)[O]C(=O)COc1ccccc1 : 4.45% (active)
CCC[CH2][Sn]1([CH2]CCC)[O]C(=O)c2cccc([N+](=O)[O-])c2C(=O)[O]1 : -82.3% (active)
CC(C)[C@]12O[C@H]1[C@@H]1O[C@]13[C@]1(O[C@H]1C[C@H]1C4=C(CC[C@@]13C)C(=O)OC4)[C@@H]2OC(=O)OC(C)(C)C : -60.5% (active)

Requested read-out: growth. Entry: `COc1cc(N(CCCl)CCCl)ccc1C=Nc1ccccc1C(=O)O`
85.8% (inactive)

Requested read-out: growth. Entry: `CNC(=O)Oc1cccc(N(C)C)c1`
97.5% (inactive)

---

Measured growth values are reported for all entries that follow.
- System: OVCAR-8 ovarian
- Assay Overview: NCI-60 one-dose screen, 48 h (100 = growth as untreated, 0 = no growth, -100 = all killed)
- Protocol Conditions: 10 µM unless noted
- Procedure: Growth inhibition of the OVCAR-8 human tumor cell line is measured as a screen for anti-cancer activity. Cells are grown in 96 well plates and exposed to the test compound for 48 hours. Compounds are tested at a single concentration, which is 10^-5 M for most compounds. The reported endpoint is percent growth (GI% or GIPRCNT), where numbers from 0 - 100% represent growth inhibition, and numbers from -100% - 0 represent cell death. For example, a value of 40 represents 60% growth inhibition. […]
This is part of a sample that, as a whole, favours compounds with a hit. Of some 83,000 tested, about 20% had one in any assay.
The figure you give is taken to be in %; do not add the unit.

// solved cases for growth follow
CCC(CO)NC1CCCCC1 (stereo not given) : 78.9
N#[N+]c1nc2nc(N)[nH]c(=O)c2[nH]1 : 100
COc1ccc(C2=NN(c3ccccc3)C(c3sc(N(CCCl)CCCl)nc3Cl)C2)cc1 (stereo not given) : 87.8

I'm curious: which growth was measured for `Cc1cc([N+](=O)[O-])c(Cl)cc1NS(=O)(=O)c1ccccc1` tested on OVCAR-8 ovarian?
78.1

I'm curious: which growth was measured for `CC1=C(SCCC(=O)OCC(=O)NCCC[Te]c2ccccc2)C(=O)c2ccccc2C1=O` tested on OVCAR-8 ovarian?
5.76

I'm curious: which growth was measured for `O=c1cc[nH]c(=O)o1` tested on OVCAR-8 ovarian?
96.6

I'm curious: which growth was measured for `CC(=O)Nc1ccc(Cc2ccc(NC(C)=O)cc2)cc1` tested on OVCAR-8 ovarian?
95.6

I'm curious: which growth was measured for `CC1(C)N=C(N)N=C(N)N1c1ccc(CCCCc2ccc(S(=O)(=O)F)cc2)c(Cl)c1` tested on OVCAR-8 ovarian?
16.5

I'm curious: which growth was measured for `[Br][Pb]([c]1ccccc1)([c]1ccccc1)[c]1ccccc1` tested on OVCAR-8 ovarian?
-100

I'm curious: which growth was measured for N#C[Se]CCN1C(=O)C2C(C1=O)[C@H]1C=C[C@@H]2S1 (stereo not given in full) tested on OVCAR-8 ovarian?
-19.3

I'm curious: which growth was measured for `Nc1cccc2c1Oc1ccccc1O2` tested on OVCAR-8 ovarian?
104

I'm curious: which growth was measured for `CCOCC1(CCc2ccccc2)C(=O)NC(=S)NC1=O` tested on OVCAR-8 ovarian?
107

I'm curious: which growth was measured for `CC(=O)Nc1ccc(C=C2C(=O)NC(=O)NC2=O)cc1` tested on OVCAR-8 ovarian?
101

I'm curious: which growth was measured for CN1C(=O)NC(=O)C(N=Nc2ccc(Cl)cc2)C1=O (stereo not given) tested on OVCAR-8 ovarian?
104

I'm curious: which growth was measured for `CNC(=O)Oc1ccccc1` tested on OVCAR-8 ovarian?
110

I'm curious: which growth was measured for `Cc1cccc(N(C)c2cccc3c2C(=O)[Se]C3)c1C` tested on OVCAR-8 ovarian?
20.2

I'm curious: which growth was measured for `Cc1cc(C)nc(C)c1.[Cl][Hg][Cl]` tested on OVCAR-8 ovarian?
100

I'm curious: which growth was measured for `C[CH2][Pb]([CH2]C)([CH2]C)[O]C(=O)COc1ccccc1` tested on OVCAR-8 ovarian?
9.05

I'm curious: which growth was measured for `Cn1cnnc1[S-].[Au+].c1ccc([PH+](c2ccccc2)c2ccccc2)cc1` tested on OVCAR-8 ovarian?
20.3

---

Measured growth values are reported for all entries that follow.
- System: MALME-3M melanoma
- Assay Overview: NCI-60 one-dose screen, 48 h (100 = growth as untreated, 0 = no growth, -100 = all killed)
- Protocol Conditions: 10 µM unless noted
Compounds without any hit were thinned out: in the full panel of roughly 83,000, 20% have a hit. The source made the active and inactive calls. How the source made its calls: active means growth percent below 10; inactive means the rest.

Requested read-out: growth. Entry: `COc1ccc(C(c2ccc(OC)cc2)C(Cl)(Cl)Cl)cc1`
91.8% (inactive)

Requested read-out: growth. Entry: O=C(c1cccs1)C1NO[N+]([O-])=C1c1cccs1 (stereo unspecified)
-55.3% (active)

Requested read-out: growth. Entry: `O=C1NC(=S)NC(=O)C1=Cc1ccccc1`
132% (inactive)

Requested read-out: growth. Entry: `O=[N+]([O-])c1ccc(/C=C/C=C/c2ccc(S(=O)(=O)F)cc2)c(Cl)c1`
102% (inactive)

Requested read-out: growth. Entry: `Cn1cnnc1[S-].[Au+].c1ccc([PH+](c2ccccc2)c2ccccc2)cc1`
-38.1% (active)

Requested read-out: growth. Entry: CCCCCCCC(=O)OCC/C=C/C1OC1C1OC(=O)/C=C\C=C\c2nc(oc2C)/C=C(/C)CCC2OC2C1OC(=O)NC(C)=O (stereo unspecified)
-12.4% (active)

---

- Tested on: HT29 colon
- Assay Overview: NCI-60 one-dose screen, 48 h (100 = growth as untreated, 0 = no growth, -100 = all killed)
- Protocol Conditions: 10 µM unless noted
Compounds without any hit were thinned out: in the full panel of roughly 83,000, 20% have a hit.
Measure: growth (%)
The figure you give is taken to be in %; do not add the unit.

C/C1=C/C(=O)O[C@@H]2C[C@@H](CC[C@H](C)/C=C\C=C\CC1)O[C@@](OCCc1ccccc1)([C@@H]1CSC(=O)N1)C2 : 8.63

Requested read-out: growth. Entry: `CN(C)P1(N(C)C)=NP(N(C)C)(N(C)C)=NP(N(C)C)(N(C)C)=N1`
104

Requested read-out: growth. Entry: Cc1ccc(N)cc1[As]=[As]c1cc(N)ccc1C (stereo not given)
-84.6

Requested read-out: growth. Entry: `O=C1c2ccccc2C(=O)N1[N+](=O)[O-]`
102

Requested read-out: growth. Entry: NC(=O)C(Br)CBr (stereo not given)
-21.8
